- System: COLO 205 colon
- assay.comment: NCI tumour cell line growth inhibition, 48 h
Kindly return Yes if reported TGI is no lower than 6 µM; return No if it is lower.

[
  {
    "molecule": "C/C(=N/NC(=O)C(N)=O)C(CC(C(=O)Nc1ccccc1C)/C(C)=N\\NC(=O)C(N)=O)C(=O)Nc1ccccc1C (stereo not drawn)",
    "group": "Yes"
  },
  {
    "molecule": "CC(=O)OC(C)(C)N=Nc1ccc(Br)cc1",
    "group": "No"
  }
]

Please indicate if the recorded TGI for CC1OC(OC2C(O)COC(OC3C(C)OC(OC4C(OC(=O)[C@]56CCC(C)(C)C[C@@H]5C5=CCC7[C@@]8(C)C[C@H](O)[C@H](OC9OC(CO)C(O)C(OC%10OC(CO)C(O)C(O)C%10O)C9O)[C@@](C)(CO)[C@@H]8CC[C@@]7(C)[C@]5(C)CC6)OCC(O)C4O)C(O)C3OC3OCC(O)C(O)C3O)C2O)C(O)C(O)C1O (stereo partly drawn) meets or exceeds 6 µM.
No

Please indicate if the recorded TGI for `[C-]#[O+].[Cl][Sn]([Cl])[Cl].[Cl][Sn]([Cl])[Cl].[Pt].c1ccncc1` meets or exceeds 6 µM.
Yes

Please indicate if the recorded TGI for `CC(=O)Nc1cc2c(cc1O)CC[C@@H]1[C@@H]2CC[C@]2(C)[C@@H](O)CC[C@@H]12` meets or exceeds 6 µM.
Yes

Please indicate if the recorded TGI for `CC1(C)C(=S)C(C)(C)C1=S` meets or exceeds 6 µM.
Yes

Please indicate if the recorded TGI for COc1cccc(NC(=O)CC(=O)N2NC(C)C(N=Nc3cccc(C(=O)O)c3)C2=O)c1 (stereo not drawn) meets or exceeds 6 µM.
Yes

Please indicate if the recorded TGI for `C=C1C(=O)O[C@@H]2C[C@@H]1CC[C@@]1(C)O[C@@H]1CC[C@@]1(C)O[C@@H]1CC[C@@]2(C)O` meets or exceeds 6 µM.
Yes

Please indicate if the recorded TGI for O=C1c2nn(-c3ccccc3)nc2C(c2ccccc2)N1c1ccccc1 (stereo not drawn) meets or exceeds 6 µM.
Yes

Please indicate if the recorded TGI for `COc1ccc(Cc2cnc(NC(=O)c3sc4ccccc4c3Cl)s2)cc1` meets or exceeds 6 µM.
Yes

Please indicate if the recorded TGI for `O=C(Nc1nc2ccc([N+](=O)[O-])cc2[n+]([O-])n1)C(F)(F)F` meets or exceeds 6 µM.
Yes

Please indicate if the recorded TGI for CSc1ccc2c(cc1=O)C(NC(=O)c1ccc(OC(C)=O)cc1)CCc1cc(O)c(O)c(O)c1-2 (stereo not drawn) meets or exceeds 6 µM.
Yes

Please indicate if the recorded TGI for CC1C/C(=N\N(C)C)C(C#N)(C#N)C1(C#N)C#N (stereo not drawn) meets or exceeds 6 µM.
No

Please indicate if the recorded TGI for `CC(C)(C)[Si](C)(C)O/N=C\c1ccc(O[Si](C)(C)C(C)(C)C)cc1` meets or exceeds 6 µM.
Yes

* * *

Form field: TGI (one value per entry).
- Tested on: ACHN renal
- assay.comment: NCI tumour cell line growth inhibition, 48 h
// note: answer is a bare numeric in µM

Worked set:
[
  {
    "compound": "Cc1cc2c(cc1C)[n+](=O)c(C(=O)N1CCN(c3ccc([N+](=O)[O-])cc3)CC1)c(C)n2[O-]",
    "measurement.kind": "TGI",
    "result.number": 12.7
  },
  {
    "compound": "COc1cc([C@@H]2c3cc4c(cc3[C@@H](O[C@@H]3O[C@@H]5CO[C@@H](c6cccs6)O[C@H]5[C@H](O)[C@H]3O)[C@H]3COC(=O)[C@H]23)OCO4)cc(OC)c1O",
    "measurement.kind": "TGI",
    "result.number": 3.69
  }
]

Look up TGI of CC1=C([Se]CC(OC(=O)[C@@H](CO)NC(=O)OC(C)(C)C)C(=O)NC(C)(C)C)C(=O)c2ccccc2C1=O (stereo partly drawn) and report it.
3.02

Look up TGI of `Cc1nc(/N=C(\N)NC(=O)Nc2ccccc2Cl)sc1C` and report it.
7.79

Look up TGI of `CC(=O)[O-].CC(=O)[O-].[NH2-].[Pt+2].c1ccncc1` and report it.
32.2
